Test: AUC in rat liver at 5 mg/kg, po
Type: ADME, organism-based
Set-up: dose 5 mg/kg, route oral
ATTRIBUTE MEASURED: AUC (µg·h/mL)
Report the figure in µg·h/mL without appending any unit label.

Exam item: Identify the reported AUC for the following entry. "COc1ccc2c(O[C@@H]3C[C@H]4C(=O)N[C@]5(C(=O)NS(=O)(=O)C6CC6)C[C@H]5/C=C\CCCCC[C@H](NC(=O)N5CCCCC5)C(=O)N4C3)cc(-c3nc(C(C)C)cs3)nc2c1C"
Marked response: 308

* * *

Assay: Terminal half life in rat liver at 5 mg/kg, po
Assay type: ADME, organism-based
Set-up: dose 5 mg/kg, route oral
Conditions: read-out: beta t1/2 (converted)
ATTRIBUTE MEASURED: half-life (h)
# unit: h | format: bare number

Exam item: Consider the compound "COc1ccc2c(O[C@@H]3C[C@H]4C(=O)N[C@]5(C(=O)NS(=O)(=O)C6CC6)C[C@H]5/C=C\CCCCC[C@H](NC(=O)N5CCCCC5)C(=O)N4C3)cc(-c3nc(C(C)C)cs3)nc2c1C" . State its measured half-life.
Marked response: 8.1

* * *

Test: Inhibition of HCV 1a protease 1a domain
Parameters: species or system Hepacivirus hominis
Mark each entry Y if its IC50 sits below 4 nM, and N for all others.

- CC(C)(C)OC(=O)N[C@H]1CCCCC/C=C\[C@@H]2C[C@@]2(C(=O)NS(=O)(=O)C2CC2)NC(=O)[C@@H]2C[C@@H](OC(=O)N3Cc4cccc(F)c4C3)CN2C1=O: Y
- CCC[C@H](NC(=O)[C@@H]1[C@H]2CCC[C@H]2CN1C(=O)[C@@H](NC(=O)[C@@H](NC(=O)c1cnccn1)C1CCCCC1)C(C)(C)C)C(=O)C(=O)NC1CC1: N

Exam item: Confirm or reject: IC50 of "COc1ccc2c(O[C@@H]3C[C@H]4C(=O)N[C@]5(C(=O)NS(=O)(=O)C6CC6)C[C@H]5/C=C\CCCCC[C@H](NC(=O)N5CCCCC5)C(=O)N4C3)cc(-c3nc(C(C)C)cs3)nc2c1C" lies strictly below 4 nM
Marked response: N

Exam item: Consider "COc1ccc2c(O[C@@H]3C[C@H]4C(=O)N[C@]5(C(=O)NS(=O)(=O)C6CC6)C[C@H]5/C=C\CCCCC[C@H](NC(=O)N5CC(F)(F)C5)C(=O)N4C3)cc(-c3nc(C(C)C)cs3)nc2c1C" . Does its IC50 lie strictly below 4 nM?
Marked response: Y

* * *

System: Hepatitis C virus
Experiment: Resistance index, ratio of EC50 for Hepatitis C virus subtype 1b harboring protease D168V mutant to EC50 for wild type Hepatitis C virus subtype 1b
Assay type: functional, Hepacivirus hominis, genotype 1b
ATTRIBUTE MEASURED: Ratio EC50

Below, 2 compounds whose answers are already recorded.
* COc1ccc2c(O[C@@H]3C[C@H]4C(=O)N[C@@]5(C(=O)NS(=O)(=O)C6CC6)C[C@@H]5/C=C/CCCCN(C)C(=O)[C@@H]4C3)cc(-c3nc(C(C)C)cs3)nc2c1C | 0.3
* CCN(C)C(=O)N[C@H]1CCCCC/C=C\[C@@H]2C[C@@]2(C(=O)NS(=O)(=O)C2CC2)NC(=O)[C@@H]2C[C@@H](Oc3cc(-c4nc(C(C)C)cs4)nc4c(C)c(OC)ccc34)CN2C1=O | <1000

Could you now look at the following compound, please?
Exam item: Fill in Ratio EC50 for record "COc1ccc2c(O[C@@H]3C[C@H]4C(=O)N[C@]5(C(=O)NS(=O)(=O)C6CC6)C[C@H]5/C=C\CCCCC[C@H](NC(=O)N(C(C)C)C(C)C)C(=O)N4C3)cc(-c3nc(C4CC4)cs3)nc2c1C"
Marked response: <1000

* * *

Assay: Oral bioavailability in rat at 5 mg/kg
Type: ADME, organism-based
Conditions: in vivo
ATTRIBUTE MEASURED: bioavailability (%)
Just the number in %, nothing appended.

• COc1ccc2c(O[C@@H]3C[C@H]4C(=O)N[C@]5(C(=O)NS(=O)(=O)C6CC6)C[C@H]5/C=C\CCCCC[C@H](NC(=O)N5CCC5)C(=O)N4C3)cc(-c3nc(C(C)C)cs3)nc2c1C = 4.2

Next up:
Exam item: Return bioavailability (reported value) for this compound: "COc1ccc2c(O[C@@H]3C[C@H]4C(=O)N[C@]5(C(=O)NS(=O)(=O)C6CC6)C[C@H]5/C=C\CCCCC[C@H](NC(=O)N5CC(F)(F)C5)C(=O)N4C3)cc(-c3nc(C(C)C)cs3)nc2c1C"
Marked response: 4

* * *

System: Hepatitis C virus
Experiment: Antiviral activity against Hepatitis C virus subtype 1a by stable replicon assay
Assay type: functional, organism-based, Hepacivirus hominis
ATTRIBUTE MEASURED: EC50 (nM)
The answer is to be given in nM; state only the numeric part.

• COc1ccc2c(O[C@@H]3C[C@H]4C(=O)N[C@]5(C(=O)NS(=O)(=O)C6CC6)C[C@H]5/C=C\CCCCC[C@H](NC(=O)N(C)C)C(=O)N4C3)cc(-c3nc(C(C)C)cs3)nc2c1C = 0.3
• COc1ccc2c(O[C@@H]3C[C@H]4C(=O)N[C@]5(C(=O)NS(=O)(=O)C6CC6)C[C@H]5/C=C\CCCCC[C@H](NC(=O)N5CCCC5)C(=O)N4C3)cc(-c3nc(C(C)C)cs3)nc2c1C = 0.4
• COc1ccc2c(O[C@@H]3C[C@H]4C(=O)N[C@@]5(C(=O)NS(=O)(=O)C6CC6)C[C@@H]5/C=C/CCCCN(C)C(=O)[C@@H]4C3)cc(-c3nc(C(C)C)cs3)nc2c1C = 2

Exam item: Give EC50 only, for "COc1ccc2c(O[C@@H]3C[C@H]4C(=O)N[C@]5(C(=O)NS(=O)(=O)C6CC6)C[C@H]5/C=C\CCCCC[C@H](NC(=O)N5C[C@@H](C)O[C@@H](C)C5)C(=O)N4C3)cc(-c3nc(C(C)C)cs3)nc2c1C" , using Hepatitis C virus data.
Marked response: 10.6

* * *

Test: Maximum drug absorption in rat at 5 mg/kg, po
Assay type: ADME, organism-based
Set-up: dose 5 mg/kg, route oral
Conditions: in vivo, read-out: Drug absorption
ATTRIBUTE MEASURED: Fa

Recorded results for 2 compounds are shown here.
• COc1ccc2c(O[C@@H]3C[C@H]4C(=O)N[C@]5(C(=O)NS(=O)(=O)C6CC6)C[C@H]5/C=C\CCCCC[C@H](NC(=O)N5CCCCC5)C(=O)N4C3)cc(-c3nc(C(C)C)cs3)nc2c1C = 20%
• COc1ccc2c(O[C@@H]3C[C@H]4C(=O)N[C@]5(C(=O)NS(=O)(=O)C6CC6)C[C@H]5/C=C\CCCCC[C@H](NC(=O)N5CC(F)(F)C5)C(=O)N4C3)cc(-c3nc(C(C)C)cs3)nc2c1C = 6.8%

Exam item: Identify measured Fa corresponding to "COc1ccc2c(O[C@@H]3C[C@H]4C(=O)N[C@]5(C(=O)NS(=O)(=O)C6CC6)C[C@H]5/C=C\CCCCC[C@H](NC(=O)N5CCC5)C(=O)N4C3)cc(-c3nc(C(C)C)cs3)nc2c1C"
Marked response: 7.6%

* * *

System: Hepatitis C virus
Assay: Antiviral activity against wild type Hepatitis C virus subtype 1b by transient replicon assay
Format: functional, organism-based, Hepacivirus hominis
Details: genotype 1b
ATTRIBUTE MEASURED: pEC50
Expect pEC50 as a plain number equal to -log10 of the molar concentration.

Solved entries:
* COc1ccc2c(O[C@@H]3C[C@H]4C(=O)N[C@]5(C(=O)NS(=O)(=O)C6CC6)C[C@H]5/C=C\CCCCC[C@H](NC(=O)N5C[C@@H](C)O[C@@H](C)C5)C(=O)N4C3)cc(-c3nc(C(C)C)cs3)nc2c1C | 9.15
* COc1ccc2c(O[C@@H]3C[C@H]4C(=O)N[C@]5(C(=O)NS(=O)(=O)C6CC6)C[C@H]5/C=C\CCCCC[C@H](NC(=O)N(C)C)C(=O)N4C3)cc(-c3nc(C(C)C)cs3)nc2c1C | 10.40

// next item, pEC50 requested
Exam item: Provide measured pEC50 on Hepatitis C virus for "COc1ccc2c(O[C@@H]3C[C@H]4C(=O)N[C@]5(C(=O)NS(=O)(=O)C6CC6)C[C@H]5/C=C\CCCCC[C@H](NC(=O)N(C(C)C)C(C)C)C(=O)N4C3)cc(-c3nc(C4CC4)cs3)nc2c1C" please.
Marked response: 9.70

* * *

Tested on: Hepatitis C virus
Experiment: Antiviral activity against Hepatitis C virus subtype 1b harboring protease A156S mutant by transient replicon assay
Assay type: functional, organism-based, Hepacivirus hominis
Details: genotype 1b
ATTRIBUTE MEASURED: pEC50
# reply with the number alone; pEC50 is -log10 of concentration in mol/L

Solved entries (count: 2):
- CC(C)(C)OC(=O)N[C@H]1CCCCC/C=C\[C@@H]2C[C@@]2(C(=O)NS(=O)(=O)C2CC2)NC(=O)[C@@H]2C[C@@H](OC(=O)N3Cc4cccc(F)c4C3)CN2C1=O: 8.70
- COc1ccc2c(O[C@@H]3C[C@H]4C(=O)N[C@]5(C(=O)NS(=O)(=O)C6CC6)C[C@H]5/C=C\CCCCC[C@H](NC(=O)N(C)C(C)C)C(=O)N4C3)cc(-c3nc(C4CC4)cs3)nc2c1C: 10.30

Okay, next one:
Exam item: Give the value of pEC50 reported for the following: "CCN(CC)C(=O)N[C@H]1CCCCC/C=C\[C@@H]2C[C@@]2(C(=O)NS(=O)(=O)C2CC2)NC(=O)[C@@H]2C[C@@H](Oc3cc(-c4nc(C(C)C)cs4)nc4c(C)c(OC)ccc34)CN2C1=O"
Marked response: 9.30
